- assay_text: Stability of dimethylchlorourea aqueous solutions at different pH and temperature by UV-Vis Spectroscopy
- Assay type: physicochemical
- measurement_conditions: aqueous solution; acidic and basic conditions at room temperature; read-out: half lives
property_measured: half-life

Challenge: Form field: reported half-life of CNC(=O)N(C)Cl
Response given: 2 to 100 days
